B1: CPEB3 Ribozyme (parent)
chain: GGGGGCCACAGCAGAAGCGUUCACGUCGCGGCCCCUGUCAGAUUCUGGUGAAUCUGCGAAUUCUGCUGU

variants of: B1; assay: self-cleavage, relative activity (ratio to wild type); higher = more cleavage; co-transcriptional
Quick reference for self-cleavage among some variants
Reported property: self-cleavage

INSERT INTO results (variant_designation, reported_property, readout_number) VALUES
  ('C9U U36C', 'self-cleavage', 1.02),
  ('C18U C32G', 'self-cleavage', 0.213),
  ('A16G C24G', 'self-cleavage', 0.385),
  ('C54U A59C', 'self-cleavage', 0.678),
  ('C24U U26A', 'self-cleavage', 0.257),
  ('C9A G41U', 'self-cleavage', 0.955),
  ('C12G U61C', 'self-cleavage', 0.282),
  ('U62C G65U', 'self-cleavage', 0.531),
  ('C12G U67C', 'self-cleavage', 0.917),
  ('A16U A59G', 'self-cleavage', 0.909),
  ('G50C G65U', 'self-cleavage', 0.774),
  ('A40C G68C', 'self-cleavage', 0.749),
  ('U21A U55A', 'self-cleavage', 0.916),
  ('C7G A60C', 'self-cleavage', 0.196),
  ('U20C A40U', 'self-cleavage', 0.227),
  ('U21G C57G', 'self-cleavage', 0.235),
  ('C34U U53A', 'self-cleavage', 0.975),
  ('G11A G56C', 'self-cleavage', 0.437),
  ('C39G G58C', 'self-cleavage', 0.929),
  ('G2U C29U', 'self-cleavage', 0.0589),
  ('C22U A51U', 'self-cleavage', 0.295),
  ('G11C A23C', 'self-cleavage', 0.672);

Origin of the recorded values: the RNAGym collection of RNA variant scans (doi:10.7554/elife.80360)
